Each entry below carries its recorded Accumulative excretion percentage.
# Procedure Summary: Fecal excretion study in rats after oral NS, SF or CNS (LC–MS/MS)
# Assay type: in vivo
# Cond: rat feces, oral NS 60 mg/kg, 24 h
Reported Endpoint: Accumulative excretion percentage

Compound	Measured Value
CC(C)=CCC[C@](C)(O[C@@H]1O[C@H](CO[C@@H]2O[C@H](CO)[C@@H](O)[C@H](O)[C@H]2O)[C@@H](O)[C@H](O)[C@H]1O)[C@H]1CC[C@]2(C)[C@@H]1[C@H](O)C[C@@H]1[C@@]3(C)CC[C@H](O[C@@H]4O[C@H](CO)[C@@H](O)[C@H](O)[C@H]4O[C@@H]4O[C@H](CO)[C@@H](O)[C@H](O)[C@H]4O)C(C)(C)[C@@H]3CC[C@]12C [ginsenoside Rb1]	2.043±0.622%
CC(C)=CCC[C@](C)(O[C@@H]1O[C@H](CO)[C@@H](O)[C@H](O)[C@H]1O)[C@H]1CC[C@]2(C)[C@@H]1[C@H](O)C[C@@H]1[C@@]3(C)CC[C@H](O)C(C)(C)[C@@H]3[C@@H](O[C@@H]3O[C@H](CO)[C@@H](O)[C@H](O)[C@H]3O[C@@H]3O[C@@H](C)[C@H](O)[C@@H](O)[C@H]3O)C[C@]12C [ginsenoside Re]	4.266±1.305%
CC(C)=CCC[C@](C)(O[C@@H]1O[C@H](CO)[C@@H](O)[C@H](O)[C@H]1O)[C@H]1CC[C@]2(C)[C@@H]1[C@H](O)C[C@@H]1[C@@]3(C)CC[C@H](O[C@@H]4O[C@H](CO)[C@@H](O)[C@H](O)[C@H]4O[C@@H]4O[C@H](CO)[C@@H](O)[C@H](O)[C@H]4O)C(C)(C)[C@@H]3CC[C@]12C [ginsenoside Rd]	4.331±1.342%

* * *

# Procedure Summary: Urinary excretion study in rats after oral NS, SF or CNS (LC–MS/MS)
# Format: in vivo
# Cond: rat urine, oral NS 60 mg/kg, 24 h

Molecule	Excretion amount [µg]
CC(C)=CCC[C@](C)(O[C@@H]1O[C@H](CO)[C@@H](O)[C@H](O)[C@H]1O)[C@H]1CC[C@]2(C)[C@@H]1[C@H](O)C[C@@H]1[C@@]3(C)CC[C@H](O[C@@H]4O[C@H](CO)[C@@H](O)[C@H](O)[C@H]4O[C@@H]4O[C@H](CO)[C@@H](O)[C@H](O)[C@H]4O)C(C)(C)[C@@H]3CC[C@]12C [ginsenoside Rd]	0.106

* * *

# Procedure Summary: Urinary excretion study in rats after oral NS, SF or CNS (LC–MS/MS)
# Assay type: in vivo
# Cond: male, Sprague Dawley, rat, urine, oral, oral CNS 110 mg/kg, 48 h
# Description: The animal room was set at constant temperature of 20 ± 2 °C with humidity of 50 ± 20% and 12/12 h light/dark cycle. Eighteen male rats were fasted for 12 h before starting the experiment. […] The urine volume was recorded and the dry feces were measured for each collection period. […] The accumulative excretion percentage was calculated for each analyte as follows. […]
Listed next: entries and their corresponding concentration at 48 h.

Compound	concentration at 48 h [ng/mL]
CC(C)=CCC[C@](C)(O[C@@H]1O[C@H](CO)[C@@H](O)[C@H](O)[C@H]1O)[C@H]1CC[C@]2(C)[C@@H]1[C@H](O)C[C@@H]1[C@@]3(C)CC[C@H](O)C(C)(C)[C@@H]3[C@@H](O[C@@H]3O[C@H](CO)[C@@H](O)[C@H](O)[C@H]3O[C@@H]3O[C@@H](C)[C@H](O)[C@@H](O)[C@H]3O)C[C@]12C [ginsenoside Re]	6
CC(C)=CCC[C@](C)(O[C@@H]1O[C@H](CO)[C@@H](O)[C@H](O)[C@H]1O)[C@H]1CC[C@]2(C)[C@@H]1[C@H](O)C[C@@H]1[C@@]3(C)CC[C@H](O[C@@H]4O[C@H](CO)[C@@H](O)[C@H](O)[C@H]4O[C@@H]4O[C@H](CO)[C@@H](O)[C@H](O)[C@H]4O)C(C)(C)[C@@H]3CC[C@]12C [ginsenoside Rd]	30
CC(C)=CCC[C@](C)(O[C@@H]1O[C@H](CO)[C@@H](O)[C@H](O)[C@H]1O)[C@H]1CC[C@]2(C)[C@@H]1[C@H](O)C[C@@H]1[C@@]3(C)CC[C@H](O)C(C)(C)[C@@H]3[C@@H](O[C@@H]3O[C@H](CO)[C@@H](O)[C@H](O)[C@H]3O)C[C@]12C [ginsenoside Rg1]	65

* * *

Accumulative excretion amount: recorded values
# Procedure Summary: Urinary excretion study in rats after oral NS, SF or CNS (LC–MS/MS)
# Format: in vivo
# Cond: rat urine, oral NS 60 mg/kg, 6 h

Molecule	Accumulative excretion amount / µg
CC(C)=CCC[C@](C)(O[C@@H]1O[C@H](CO)[C@@H](O)[C@H](O)[C@H]1O)[C@H]1CC[C@]2(C)[C@@H]1[C@H](O)C[C@@H]1[C@@]3(C)CC[C@H](O)C(C)(C)[C@@H]3[C@@H](O[C@@H]3O[C@H](CO)[C@@H](O)[C@H](O)[C@H]3O)C[C@]12C [ginsenoside Rg1]	9.709
CC(C)=CCC[C@](C)(O[C@@H]1O[C@H](CO)[C@@H](O)[C@H](O)[C@H]1O)[C@H]1CC[C@]2(C)[C@@H]1[C@H](O)C[C@@H]1[C@@]3(C)CC[C@H](O[C@@H]4O[C@H](CO)[C@@H](O)[C@H](O)[C@H]4O[C@@H]4O[C@H](CO)[C@@H](O)[C@H](O)[C@H]4O)C(C)(C)[C@@H]3CC[C@]12C [ginsenoside Rd]	0.048
CC(C)=CCC[C@](C)(O[C@@H]1O[C@H](CO)[C@@H](O)[C@H](O)[C@H]1O)[C@H]1CC[C@]2(C)[C@@H]1[C@H](O)C[C@@H]1[C@@]3(C)CC[C@H](O)C(C)(C)[C@@H]3[C@@H](O[C@@H]3O[C@H](CO)[C@@H](O)[C@H](O)[C@H]3O[C@@H]3O[C@@H](C)[C@H](O)[C@@H](O)[C@H]3O)C[C@]12C [ginsenoside Re]	0.509
CC(C)=CCC[C@](C)(O[C@@H]1O[C@H](CO[C@@H]2O[C@H](CO)[C@@H](O)[C@H](O)[C@H]2O)[C@@H](O)[C@H](O)[C@H]1O)[C@H]1CC[C@]2(C)[C@@H]1[C@H](O)C[C@@H]1[C@@]3(C)CC[C@H](O[C@@H]4O[C@H](CO)[C@@H](O)[C@H](O)[C@H]4O[C@@H]4O[C@H](CO)[C@@H](O)[C@H](O)[C@H]4O)C(C)(C)[C@@H]3CC[C@]12C [ginsenoside Rb1]	0.798

* * *

concentration at 2 h: recorded values
# Procedure Summary: Urinary excretion study in rats after oral NS, SF or CNS (LC–MS/MS)
# Assay type: in vivo
# Cond: male, Sprague Dawley, rat, urine, oral, 60 mg/kg, oral NS 60 mg/kg, 2 h
Reported Endpoint: concentration at 2 h (ng/mL)

Compound	Reported Endpoint	Reading Unit	Measured Value
CC(C)=CCC[C@](C)(O[C@@H]1O[C@H](CO)[C@@H](O)[C@H](O)[C@H]1O)[C@H]1CC[C@]2(C)[C@@H]1[C@H](O)C[C@@H]1[C@@]3(C)CC[C@H](O)C(C)(C)[C@@H]3[C@@H](O[C@@H]3O[C@H](CO)[C@@H](O)[C@H](O)[C@H]3O[C@@H]3O[C@@H](C)[C@H](O)[C@@H](O)[C@H]3O)C[C@]12C [ginsenoside Re]	concentration at 2 h	ng/mL	289
CC(C)=CCC[C@](C)(O[C@@H]1O[C@H](CO)[C@@H](O)[C@H](O)[C@H]1O)[C@H]1CC[C@]2(C)[C@@H]1[C@H](O)C[C@@H]1[C@@]3(C)CC[C@H](O)C(C)(C)[C@@H]3[C@@H](O[C@@H]3O[C@H](CO)[C@@H](O)[C@H](O)[C@H]3O)C[C@]12C [ginsenoside Rg1]	concentration at 2 h	ng/mL	3360
CC(C)=CCC[C@](C)(O[C@@H]1O[C@H](CO)[C@@H](O)[C@H](O)[C@H]1O)[C@H]1CC[C@]2(C)[C@@H]1[C@H](O)C[C@@H]1[C@@]3(C)CC[C@H](O[C@@H]4O[C@H](CO)[C@@H](O)[C@H](O)[C@H]4O[C@@H]4O[C@H](CO)[C@@H](O)[C@H](O)[C@H]4O)C(C)(C)[C@@H]3CC[C@]12C [ginsenoside Rd]	concentration at 2 h	ng/mL	17
CC(C)=CCC[C@](C)(O[C@@H]1O[C@H](CO[C@@H]2O[C@H](CO)[C@@H](O)[C@H](O)[C@H]2O)[C@@H](O)[C@H](O)[C@H]1O)[C@H]1CC[C@]2(C)[C@@H]1[C@H](O)C[C@@H]1[C@@]3(C)CC[C@H](O[C@@H]4O[C@H](CO)[C@@H](O)[C@H](O)[C@H]4O[C@@H]4O[C@H](CO)[C@@H](O)[C@H](O)[C@H]4O)C(C)(C)[C@@H]3CC[C@]12C [ginsenoside Rb1]	concentration at 2 h	ng/mL	115

Origin of values: paper PMC6321168
